Target: h FPR2 (Homo sapiens)
Sequence (P25090 1-351): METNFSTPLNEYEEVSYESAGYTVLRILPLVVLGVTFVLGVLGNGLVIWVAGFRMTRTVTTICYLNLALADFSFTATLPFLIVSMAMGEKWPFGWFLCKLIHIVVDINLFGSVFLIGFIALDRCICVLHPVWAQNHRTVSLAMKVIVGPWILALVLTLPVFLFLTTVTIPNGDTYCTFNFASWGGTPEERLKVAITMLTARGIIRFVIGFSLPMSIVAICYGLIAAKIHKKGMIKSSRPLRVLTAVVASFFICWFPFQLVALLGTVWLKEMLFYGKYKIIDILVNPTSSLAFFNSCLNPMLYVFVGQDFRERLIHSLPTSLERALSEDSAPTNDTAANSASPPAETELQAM
Assay: Agonistic activity in hFPR2-Aq-CHO cells (FLIPR Calcium 5 fluorescence assay)
Conditions: 11 point half log dilution, final assay concentration from 10µM
measuredQuantity: EC50 (nM)
Number in nM, nothing else.

# molecule, number
records = [
    ("COc1ccc([C@@H]2CN(Cc3ccc(C4CC4)nc3)CC[C@H]2NC(=O)Nc2ccc(Cl)cc2)nc1 (relative stereo)", 0.09),
    ("COc1ccc([C@@H]2CN(C3CCS(=O)(=O)CC3)CC[C@H]2NC(=O)Nc2ccc(Cl)cc2)nc1 (relative stereo)", 49),
]

Entry under test: COc1ccc([C@@H]2CN(c3ccc(F)cc3)C(=O)C[C@H]2NC(=O)Nc2ccc(Cl)cc2)nc1 (relative stereo) . Its EC50 was 0.05

###

biological target: h FPR2 (Homo sapiens); test: Agonistic activity in hFPR2-Aq-CHO cells (FLIPR Calcium 5 fluorescence assay); settings: 11 point half log dilution, final assay concentration from 10µM
pEC50: −log10 of the molar value.
Class true (1): pEC50 at least 8. Class false (0): pEC50 below 8.

Recorded results for 6 compounds are shown here.
# compound, targetSystem, categoryLabel
records = [
    ("COc1ccc([C@@H]2CN(CC3CCNCC3)CC[C@H]2NC(=O)Nc2ccc(Cl)cc2)nc1 (single isomer, unassigned) [Ex-82]", "h FPR2 (Homo sapiens)", "false (0)"),
    ("COc1cnc([C@@H]2CN(CCCO)CC[C@H]2NC(=O)Nc2ccc(Cl)cc2)c(F)c1 (relative stereo)", "h FPR2 (Homo sapiens)", "true (1)"),
    ("Cc1cc(NC(=O)N[C@@H]2CCN(c3ccncn3)C[C@H]2c2ccc(Cl)cn2)sn1 (relative stereo) [Ex-13]", "h FPR2 (Homo sapiens)", "true (1)"),
    ("COc1ccc([C@@H]2CN(C(=O)C3CCN(C)CC3)CC[C@H]2NC(=O)Nc2ccccc2)nc1 (relative stereo)", "h FPR2 (Homo sapiens)", "false (0)"),
    ("COc1ccc([C@@H]2CN(C(=O)CN(C)C)CC[C@H]2NC(=O)Nc2cc(C)ns2)nc1 (relative stereo)", "h FPR2 (Homo sapiens)", "true (1)"),
    ("COc1ncc(CN2CC[C@@H](NC(=O)Nc3ccc(Cl)cc3)[C@H](c3ccc(Cl)s3)C2)cn1 (relative stereo)", "h FPR2 (Homo sapiens)", "true (1)"),
]

Task: Is pEC50 at least 8? Consider COc1cnc([C@@H]2CN(CC(N)=O)CC[C@H]2NC(=O)Nc2ccc(Cl)cc2)c(F)c1 (relative stereo)
Output: true (1)

Task: Is pEC50 at least 8? Consider COc1ccc([C@@H]2CN(c3ccc(F)cc3)CC[C@H]2NC(=O)Nc2cc(C)ns2)nc1 (relative stereo)
Output: true (1)
